// provenance: ChEMBL document CHEMBL3585308

# experimentalSystem: Nuclear factor erythroid 2-related factor 2 (Homo sapiens) (UniProt Q16236)
# Sequence (Q16236 whole entry): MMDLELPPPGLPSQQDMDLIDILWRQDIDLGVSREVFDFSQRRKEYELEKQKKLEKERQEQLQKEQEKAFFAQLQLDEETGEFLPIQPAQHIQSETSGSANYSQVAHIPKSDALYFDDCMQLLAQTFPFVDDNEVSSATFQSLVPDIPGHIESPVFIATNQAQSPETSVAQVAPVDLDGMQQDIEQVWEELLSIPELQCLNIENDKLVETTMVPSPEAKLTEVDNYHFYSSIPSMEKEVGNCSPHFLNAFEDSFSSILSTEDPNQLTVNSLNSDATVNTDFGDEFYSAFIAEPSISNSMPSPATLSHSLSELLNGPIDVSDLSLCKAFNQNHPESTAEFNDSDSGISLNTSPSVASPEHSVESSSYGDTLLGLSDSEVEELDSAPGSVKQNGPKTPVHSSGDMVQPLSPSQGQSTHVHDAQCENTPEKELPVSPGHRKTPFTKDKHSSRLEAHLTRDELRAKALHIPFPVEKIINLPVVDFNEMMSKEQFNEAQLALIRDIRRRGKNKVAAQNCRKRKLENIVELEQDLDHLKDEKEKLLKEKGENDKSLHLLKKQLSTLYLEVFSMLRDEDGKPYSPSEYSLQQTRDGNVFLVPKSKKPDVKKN
# testSummary: Activation of Nrf2 in human HepG2-ARE-C8 cells assessed as upregulation of ARE level at 0.02 uM after 12 hrs by luciferase reporter gene assay relative to control
# Type: cell-based
measurementName: fold change (FC)
One number for each entry.

Past entries and their recorded results:
[
  {
    "recordSmiles": "N#Cc1ccccc1-c1nc(-c2ccc3nc[nH]c3c2)no1",
    "experimentalSystem": "Nuclear factor erythroid 2-related factor 2 (Homo sapiens) (UniProt Q16236)",
    "measurementName": "fold change (FC)",
    "readoutNumber": 1.36
  },
  {
    "recordSmiles": "CC(C)(C)C1=CC(=O)C=CC1=O",
    "experimentalSystem": "Nuclear factor erythroid 2-related factor 2 (Homo sapiens) (UniProt Q16236)",
    "measurementName": "fold change (FC)",
    "readoutNumber": 1.18
  },
  {
    "recordSmiles": "N#Cc1ccc(-c2nc(-c3ccc4nc[nH]c4c3)no2)cc1",
    "experimentalSystem": "Nuclear factor erythroid 2-related factor 2 (Homo sapiens) (UniProt Q16236)",
    "measurementName": "fold change (FC)",
    "readoutNumber": 1.22
  },
  {
    "recordSmiles": "COc1ccccc1-c1nc(-c2ccc3nc[nH]c3c2)no1",
    "experimentalSystem": "Nuclear factor erythroid 2-related factor 2 (Homo sapiens) (UniProt Q16236)",
    "measurementName": "fold change (FC)",
    "readoutNumber": 1.24
  },
  {
    "recordSmiles": "Cc1cccc(-c2nc(-c3ccc4nc[nH]c4c3)no2)c1",
    "experimentalSystem": "Nuclear factor erythroid 2-related factor 2 (Homo sapiens) (UniProt Q16236)",
    "measurementName": "fold change (FC)",
    "readoutNumber": 1.44
  },
  {
    "recordSmiles": "FC(F)(F)c1cccc(-c2nc(-c3ccc4nc[nH]c4c3)no2)c1",
    "experimentalSystem": "Nuclear factor erythroid 2-related factor 2 (Homo sapiens) (UniProt Q16236)",
    "measurementName": "fold change (FC)",
    "readoutNumber": 2.56
  },
  {
    "recordSmiles": "Cc1ccccc1-c1nc(-c2ccc3nc[nH]c3c2)no1",
    "experimentalSystem": "Nuclear factor erythroid 2-related factor 2 (Homo sapiens) (UniProt Q16236)",
    "measurementName": "fold change (FC)",
    "readoutNumber": 1.4
  },
  {
    "recordSmiles": "Oc1cccc(-c2nc(-c3ccc4nc[nH]c4c3)no2)c1",
    "experimentalSystem": "Nuclear factor erythroid 2-related factor 2 (Homo sapiens) (UniProt Q16236)",
    "measurementName": "fold change (FC)",
    "readoutNumber": 1.68
  }
]

For each of the items listed, what is its fold change (FC)?
1. Cn1cnc2ccc(-c3noc(-c4ccc5ccccc5c4)n3)cc21
2. Cn1cnc2ccc(-c3noc(-c4ccccc4)n3)cc21
3. Oc1ccccc1-c1nc(-c2ccc3nc[nH]c3c2)no1
4. FC(F)(F)c1ccccc1-c1nc(-c2ccc3nc[nH]c3c2)no1

1. 1.44
2. 2.03
3. 1.72
4. 1.23
